Test: Inhibition of Trypanosoma brucei brucei Lister 427 Nucleoside/nucleobase transporter P2 transporter by scintillation counting
Item-by-item account of Ki
Lab book: enter the figure in µM, no units written.

>  <SMILES_REPR>
Nc1ncnc2c(CN3C[C@H](O)[C@H](O)[C@H]3CO)csc12

>  <Ki [µM]>
125

$$$$

Quick note, Ki for `Nc1ncnc2c(CN3C[C@H](O)[C@H](O)[C@H]3CO)c[nH]c12` landed at 8.2

---

IC50 values for the molecules below.
System: Trypanosoma brucei brucei
Assay: Antitrypanosomal activity against suramin sensitive Trypanosoma brucei brucei Lister 427 assessed as reduction in parasite growth after 3 days by fluorometrically
Format: functional, organism-based
Conditions: Lister 427, 72 h

>  <SMILES_REPR>
OC[C@@H]1[C@@H](O)[C@@H](O)CN1Cc1ccc2cccnc2c1

>  <MEASURE>
IC50

>  <ASSAY_VALUE>
> 64 µM

$$$$
>  <SMILES_REPR>
O=c1[nH]cnc2c(CN3C[C@H](O)[C@H](O)[C@H]3CO)cccc12

>  <MEASURE>
IC50

>  <ASSAY_VALUE>
> 64 µM

$$$$
>  <SMILES_REPR>
O=[N+]([O-])c1cccc(CN2C[C@H](O)[C@H](O)[C@H]2CO)c1

>  <MEASURE>
IC50

>  <ASSAY_VALUE>
> 64 µM

$$$$
>  <SMILES_REPR>
OC[C@@H]1[C@@H](O)[C@@H](O)CN1Cc1cccc(-n2cccc2)c1

>  <MEASURE>
IC50

>  <ASSAY_VALUE>
29 µM

$$$$
>  <SMILES_REPR>
O=c1ccc2cccc(CN3C[C@H](O)[C@H](O)[C@H]3CO)c2[nH]1

>  <MEASURE>
IC50

>  <ASSAY_VALUE>
> 64 µM

$$$$

`OC[C@@H]1[C@@H](O)[C@@H](O)CN1Cc1ccc2cccc(O)c2n1` tested on Trypanosoma brucei brucei gave IC50: 49 µM

The observed IC50 for `Nc1ccnc2c(CN3C[C@H](O)[C@H](O)[C@H]3CO)cccc12` when tested with Trypanosoma brucei brucei stands at > 64 µM

Reported IC50 (Trypanosoma brucei brucei) for entry `Nc1nc2c(CN3C[C@H](O)[C@H](O)[C@H]3CO)cccc2s1` is > 64 µM

---

Experiment: Inhibition of Trypanosoma vivax Inosine-adenosine-guanosine-nucleoside hydrolase
Measured Ki of individual entries
Enter your answer as a number in nM; do not include the unit.

Please review the entries below; each comes with its answer.
>  <COMPOUND>
O=c1cc[nH]c2c(CN3C[C@H](O)[C@H](O)[C@H]3CO)cccc12

>  <MEASURE>
Ki

>  <UNIT_NAME>
nM

>  <ASSAY_VALUE>
13100

$$$$
>  <COMPOUND>
OC[C@@H]1[C@@H](O)[C@@H](O)CN1Cc1nccc2ccccc12

>  <MEASURE>
Ki

>  <UNIT_NAME>
nM

>  <ASSAY_VALUE>
750

$$$$
>  <COMPOUND>
OC[C@@H]1[C@@H](O)[C@@H](O)CN1Cc1csc2cncnc12

>  <MEASURE>
Ki

>  <UNIT_NAME>
nM

>  <ASSAY_VALUE>
42

$$$$
>  <COMPOUND>
Nc1ncnc2c(C3N[C@H](CO)[C@@H](O)[C@H]3O)c[nH]c12 (some centres not stated) [IMMUCILLIN A]

>  <MEASURE>
Ki

>  <UNIT_NAME>
nM

>  <ASSAY_VALUE>
6.2

$$$$
>  <COMPOUND>
OC[C@@H]1[C@@H](O)[C@@H](O)CN1Cc1ccc2ccccc2c1

>  <MEASURE>
Ki

>  <UNIT_NAME>
nM

>  <ASSAY_VALUE>
2000

$$$$
>  <COMPOUND>
OC[C@@H]1[C@@H](O)[C@@H](O)CN1Cc1ccc(-n2cncn2)cc1

>  <MEASURE>
Ki

>  <UNIT_NAME>
nM

>  <ASSAY_VALUE>
1200

$$$$

Lab note: measured Ki of `OC[C@@H]1[C@@H](O)[C@@H](O)CN1Cc1cccc(-n2cccc2)c1` was 3400

Notebook: OC[C@H]1NC[C@H](O)[C@@H]1O [IMINORIBITOL] , Ki read as 6000

Noted for `Nc1ncnc2c(CN3C[C@H](O)[C@H](O)[C@H]3CO)csc12` : its Ki reads 19

---

Test: Inhibition of Trypanosoma vivax Inosine-adenosine-guanosine-nucleoside hydrolase
This section presents molecules with their documented Ki values.
Give the quantity in nM, number only.

>  <MOLECULE>
OC[C@@H]1[C@@H](O)[C@@H](O)CN1Cc1ccc2cccc(O)c2n1

>  <UNIT_NAME>
nM

>  <ASSAY_VALUE>
1000

$$$$
>  <MOLECULE>
COc1ccnc2c(CN3C[C@H](O)[C@H](O)[C@H]3CO)cccc12

>  <UNIT_NAME>
nM

>  <ASSAY_VALUE>
29

$$$$
>  <MOLECULE>
Nc1nc2c(CN3C[C@H](O)[C@H](O)[C@H]3CO)cccc2s1

>  <UNIT_NAME>
nM

>  <ASSAY_VALUE>
40

$$$$
>  <MOLECULE>
N#Cc1cccc(CN2C[C@H](O)[C@H](O)[C@H]2CO)c1

>  <UNIT_NAME>
nM

>  <ASSAY_VALUE>
3800

$$$$
>  <MOLECULE>
CN1C(CCNC(=N)N)[C@H](O)[C@H](O)[C@H]1CO (some centres undefined)

>  <UNIT_NAME>
nM

>  <ASSAY_VALUE>
18000

$$$$

// sample `OC[C@@H]1[C@@H](O)[C@@H](O)CN1Cc1ccc(-n2cccn2)cc1` , its Ki was 1200

So for `O=c1[nH]cnc2c([C@@H]3N[C@H](CO)[C@@H](O)[C@H]3O)c[nH]c12` , the logged Ki turned out to be 6.2

---

As shown below, each of these molecules has a reported Ki value.
Test: Inhibition of Trypanosoma brucei brucei Inosine guanosine nucleoside hydrolase
Supply the numeric figure in µM, leaving out any unit text.

Would you please look over these solved cases?
>  <MOLECULE>
Nc1ncnc2c(C3N[C@H](CO)[C@@H](O)[C@H]3O)c[nH]c12 (stereo not given in full)

>  <MEASURE>
Ki

>  <UNIT_NAME>
µM

>  <ASSAY_VALUE>
0.0044

$$$$
>  <MOLECULE>
Nc1ncnc2c(CN3C[C@H](O)[C@H](O)[C@H]3CO)csc12

>  <MEASURE>
Ki

>  <UNIT_NAME>
µM

>  <ASSAY_VALUE>
31

$$$$
>  <MOLECULE>
OC[C@@H]1[C@@H](O)[C@@H](O)CN1Cc1cccc2cccnc12

>  <MEASURE>
Ki

>  <UNIT_NAME>
µM

>  <ASSAY_VALUE>
11

$$$$
>  <MOLECULE>
O=c1[nH]cnc2c([C@@H]3N[C@H](CO)[C@@H](O)[C@H]3O)c[nH]c12

>  <MEASURE>
Ki

>  <UNIT_NAME>
µM

>  <ASSAY_VALUE>
0.009

$$$$

Turning now to a further molecule:
According to the records, this molecule `Nc1nc2c(CN3C[C@H](O)[C@H](O)[C@H]3CO)cccc2s1` displays Ki of 14

---

Test: Inhibition of human purine nucleoside phosphorylase
pKi: −log10 of the molar value.
MEASURE: pKi

Some solved entries appear below for comparison.
>  <MOLECULE>
Nc1ncnc2c(CN3C[C@H](O)[C@H](O)[C@H]3CO)csc12

>  <ASSAY_VALUE>
3.00

$$$$
>  <MOLECULE>
OC[C@@H]1[C@@H](O)[C@@H](O)CN1Cc1cccc2c(Cl)ccnc12

>  <ASSAY_VALUE>
< 3.00

$$$$
>  <MOLECULE>
Nc1ncnc2c(C3N[C@H](CO)[C@@H](O)[C@H]3O)c[nH]c12 (stereo partly drawn)

>  <ASSAY_VALUE>
< 5.00

$$$$

The recorded pKi for entry `OC[C@@H]1[C@@H](O)[C@@H](O)CN1Cc1csc2cncnc12` equals < 3.00

Entry `Nc1ncnc2c(CN3C[C@H](O)[C@H](O)[C@H]3CO)c[nH]c12` ; pKi = 4.65

The reported pKi of the molecule `OC[C@@H]1[C@@H](O)[C@@H](O)CN1Cc1cccc2cncnc12` was < 3.00

Reported pKi of `OC[C@@H]1[C@@H](O)[C@@H](O)CN1Cc1c[nH]c2c(O)ncnc12` : 8.24

Looking up `COc1cccc2c(CN3C[C@H](O)[C@H](O)[C@H]3CO)c[nH]c12` , I found its pKi recorded as < 3.40

Consider `Nc1ncnc2c(CN3C[C@H](O)[C@H](O)[C@H]3CO)cccc12` . Its measured pKi is < 3.00

The measured pKi associated with `COc1ccnc2c(CN3C[C@H](O)[C@H](O)[C@H]3CO)cccc12` reads < 3.00

Lab note: measured pKi of `Nc1ccnc2c(CN3C[C@H](O)[C@H](O)[C@H]3CO)cccc12` was < 3.00
